target-of-assay: IKZF2 (Homo sapiens (Human), UniProt Q96SW2+Q9UKS7)
Sequence (Q9UKS7 whole entry): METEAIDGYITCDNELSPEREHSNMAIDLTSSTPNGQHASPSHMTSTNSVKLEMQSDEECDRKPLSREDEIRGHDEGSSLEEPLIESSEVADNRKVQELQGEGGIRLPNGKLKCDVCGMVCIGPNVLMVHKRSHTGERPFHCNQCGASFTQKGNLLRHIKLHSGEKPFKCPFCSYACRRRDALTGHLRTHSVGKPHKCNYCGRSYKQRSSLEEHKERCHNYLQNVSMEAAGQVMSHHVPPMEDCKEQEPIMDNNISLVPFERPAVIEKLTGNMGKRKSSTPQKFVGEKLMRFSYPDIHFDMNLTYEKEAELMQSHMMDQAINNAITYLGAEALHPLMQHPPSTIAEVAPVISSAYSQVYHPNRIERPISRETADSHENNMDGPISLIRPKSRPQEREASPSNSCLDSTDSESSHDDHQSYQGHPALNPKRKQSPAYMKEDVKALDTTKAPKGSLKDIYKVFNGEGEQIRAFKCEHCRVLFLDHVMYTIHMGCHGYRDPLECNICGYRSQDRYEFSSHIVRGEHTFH
Sequence (Q96SW2 whole entry): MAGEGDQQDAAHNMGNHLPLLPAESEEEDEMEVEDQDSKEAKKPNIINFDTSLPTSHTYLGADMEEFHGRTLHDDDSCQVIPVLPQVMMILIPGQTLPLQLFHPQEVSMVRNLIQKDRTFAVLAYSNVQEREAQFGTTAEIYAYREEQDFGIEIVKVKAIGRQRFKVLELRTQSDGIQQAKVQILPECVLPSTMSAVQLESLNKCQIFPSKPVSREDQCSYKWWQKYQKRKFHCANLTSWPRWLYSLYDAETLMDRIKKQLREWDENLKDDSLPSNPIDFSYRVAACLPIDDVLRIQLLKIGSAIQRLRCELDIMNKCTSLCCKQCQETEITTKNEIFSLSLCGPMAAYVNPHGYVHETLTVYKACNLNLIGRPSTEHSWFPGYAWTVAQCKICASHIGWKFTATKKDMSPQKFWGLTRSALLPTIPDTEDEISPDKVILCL
Sequence (Q16531 2-1140 partner): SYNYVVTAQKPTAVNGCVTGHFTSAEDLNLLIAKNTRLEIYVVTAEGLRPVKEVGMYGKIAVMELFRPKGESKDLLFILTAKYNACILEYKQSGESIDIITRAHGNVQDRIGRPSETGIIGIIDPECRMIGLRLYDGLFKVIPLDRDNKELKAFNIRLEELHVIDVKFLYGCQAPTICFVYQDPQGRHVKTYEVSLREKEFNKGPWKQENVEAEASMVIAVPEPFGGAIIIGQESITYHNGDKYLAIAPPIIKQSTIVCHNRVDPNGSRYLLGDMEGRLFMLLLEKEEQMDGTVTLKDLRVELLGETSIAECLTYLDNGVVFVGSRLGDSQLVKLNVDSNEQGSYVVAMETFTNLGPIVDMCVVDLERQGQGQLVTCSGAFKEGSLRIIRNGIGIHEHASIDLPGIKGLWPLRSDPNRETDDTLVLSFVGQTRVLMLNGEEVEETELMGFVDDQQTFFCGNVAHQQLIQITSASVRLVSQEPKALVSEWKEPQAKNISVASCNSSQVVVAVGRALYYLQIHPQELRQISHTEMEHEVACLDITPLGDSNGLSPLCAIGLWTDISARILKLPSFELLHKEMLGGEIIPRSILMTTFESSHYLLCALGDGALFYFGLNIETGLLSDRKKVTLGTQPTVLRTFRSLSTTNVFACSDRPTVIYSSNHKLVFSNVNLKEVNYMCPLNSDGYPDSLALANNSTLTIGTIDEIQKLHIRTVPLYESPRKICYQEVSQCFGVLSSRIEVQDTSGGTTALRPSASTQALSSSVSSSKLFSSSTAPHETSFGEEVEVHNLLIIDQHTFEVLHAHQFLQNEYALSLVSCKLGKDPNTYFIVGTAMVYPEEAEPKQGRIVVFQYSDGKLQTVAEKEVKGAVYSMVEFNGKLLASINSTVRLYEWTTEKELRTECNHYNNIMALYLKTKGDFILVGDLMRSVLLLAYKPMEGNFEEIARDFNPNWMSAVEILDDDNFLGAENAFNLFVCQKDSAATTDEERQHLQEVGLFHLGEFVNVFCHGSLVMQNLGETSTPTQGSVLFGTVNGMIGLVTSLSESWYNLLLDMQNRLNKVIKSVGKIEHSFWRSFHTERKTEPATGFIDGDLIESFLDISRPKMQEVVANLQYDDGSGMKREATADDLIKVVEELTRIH
protocol-text: In vitro IKZF2 FACS Assay in Jurkat cells
Assay type: cell-based
experimental-setup: 24 hrs, half maximal degradation concentration
measure-name: DC50

Here's what some known entries look like.
- compound: "O=C1CCC(N2Cc3cc(-c4cc(CN5CC6COCC(C6)C5)cc5cncn45)ccc3C2=O)C(=O)N1 (stereo not shown)"
  measure-name: "DC50"
  recorded-result: "0.1 to 1 µM"
- compound: "COC[C@@H]1CCCN1Cc1cc(-c2ccc3c(c2)CN(C2CCC(=O)NC2=O)C3=O)nc2c1ccn2C1COC1 (stereo partly shown)"
  measure-name: "DC50"
  recorded-result: "0.001 to 0.01 µM"
- compound: "O=C1CCC(N2Cc3cc(-c4cc(CN5CC6CC6C5)cc5cncn45)ccc3C2=O)C(=O)N1 (stereo not shown)"
  measure-name: "DC50"
  recorded-result: "0.01 to 0.1 µM"

Here's the next entry for you.
# value lookup — system IKZF2 (Homo sapiens (Human), UniProt Q96SW2+Q9UKS7), readout DC50, item Cn1cc2nc(-c3ccc4c(c3)CN(C3CCC(=O)NC3=O)C4=O)cc(CN3CCCC3)c2n1 (stereo not shown) 0.001 to 0.01 µM

* * *

target-of-assay: IKZF1 (Homo sapiens (Human), UniProt Q13422+Q96SW2)
Sequence (Q13422 whole entry): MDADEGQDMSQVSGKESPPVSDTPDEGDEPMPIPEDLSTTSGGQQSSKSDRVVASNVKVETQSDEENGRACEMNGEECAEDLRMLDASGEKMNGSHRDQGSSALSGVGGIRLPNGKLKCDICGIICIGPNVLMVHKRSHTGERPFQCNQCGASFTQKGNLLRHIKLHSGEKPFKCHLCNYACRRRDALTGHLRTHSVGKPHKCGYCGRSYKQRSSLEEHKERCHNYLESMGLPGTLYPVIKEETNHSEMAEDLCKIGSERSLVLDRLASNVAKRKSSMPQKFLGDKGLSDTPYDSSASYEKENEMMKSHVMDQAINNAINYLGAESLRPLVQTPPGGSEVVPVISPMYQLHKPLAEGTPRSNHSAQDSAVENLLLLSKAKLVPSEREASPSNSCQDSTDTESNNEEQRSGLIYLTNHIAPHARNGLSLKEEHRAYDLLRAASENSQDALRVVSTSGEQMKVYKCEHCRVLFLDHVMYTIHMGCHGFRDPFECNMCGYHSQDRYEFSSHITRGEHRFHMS
Sequence (Q96SW2 whole entry): as the sequence (Q96SW2 whole entry) above
Sequence (Q16531 2-1140 partner): as the sequence (Q16531 2-1140 partner) above
protocol-text: In vitro IKZF1 HiBit Assay (HEK293T Flp-in-HiBiT-IKZF1 stable cell line)
Format: cell-based
experimental-setup: HEK-293T; HEK293T Flp-in-HiBiT-IKZF1 stable cell line, 6 hrs incubation; read-out: IKZF1 HiBit Dmax (%)
measure-name: Dmax

Here's what some known entries look like.
- molecule: "O=C1CCC(N2Cc3cc(-c4cc(CN5CC(O)C5)c5ccn(C6CC6)c5n4)ccc3C2=O)C(=O)N1 (stereo not drawn)"
  recorded-result: "< 20%"
- molecule: "O=C1CCC(N2Cc3cc(-c4cc(CN5CCCC5)c5c(n4)NC(=O)C5)ccc3C2=O)C(=O)N1 (stereo not drawn)"
  recorded-result: "20 to 40%"
- molecule: "O=C1CCC(N2Cc3cc(-c4nc(CN5CCCC5)c5cc[nH]c5n4)ccc3C2=O)C(=O)N1 (stereo not drawn)"
  recorded-result: "< 20%"
- molecule: "CC(C)Nc1n[nH]c2c(CN3CCC(C(F)(F)F)CC3)cc(-c3ccc4c(c3F)CN(C3CCC(=O)NC3=O)C4=O)nc12 (stereo not drawn)"
  recorded-result: "< 20%"
- molecule: "O=C1CCC(N2Cc3cc(-c4cc(CN5CCCC5)c5[nH]nc(C6CCC6)c5n4)ccc3C2=O)C(=O)N1 (stereo not drawn)"
  recorded-result: "40 to 60%"

Form field: reported Dmax of Cn1ccc2c(CN3CC4CCCC4C3)cc(-c3ccc4c(c3)CN(C3CCC(=O)NC3=O)C4=O)nc21 (stereo not drawn) 40 to 60%

Form field: reported Dmax of CC1c2cc(-c3cc(CN4CCCC4)c4ccn(C5CS(=O)(=O)C5)c4n3)ccc2C(=O)N1C1CCC(=O)NC1=O (stereo not drawn) 20 to 40%

Form field: reported Dmax of COC1CN(Cc2cc(-c3ccc4c(c3)CN(C3CCC(=O)NC3=O)C4=O)nc3c2ccn3C)C1 (stereo not drawn) 20 to 40%

* * *

target-of-assay: IKZF1 (Homo sapiens (Human), UniProt Q13422+Q96SW2)
protocol-text: In vitro IKZF1 HiBit Assay (HEK293T Flp-in-HiBiT-IKZF1 stable cell line)
Type: cell-based
experimental-setup: HEK-293T; HEK293T Flp-in-HiBiT-IKZF1 stable cell line, 6 hrs incubation; read-out: IKZF1 HiBit Dmax (%)
measure-name: Dmax

Here's what some known entries look like.
- compound: "O=C1CCC(N2Cc3cc(-c4cc(CN5CC(O)C5)c5ccn(C6COC6)c5n4)ccc3C2=O)C(=O)N1 (stereo not drawn)"
  measure-name: "Dmax"
  recorded-result: "< 20%"
- compound: "Cn1cnc2c(CN3CCCC3)cc(-c3ccc4c(c3)CN(C3CCC(=O)NC3=O)C4=O)nc21 (stereo not drawn)"
  measure-name: "Dmax"
  recorded-result: "20 to 40%"
- compound: "O=C1CCC(N2Cc3cc(-c4cc(CN5CCCCC56CC6)c5ccn(C6COC6)c5n4)ccc3C2=O)C(=O)N1 (stereo not drawn)"
  measure-name: "Dmax"
  recorded-result: "< 20%"
- compound: "CO[C@H]1C[C@@H](Oc2ccnc3c(CN4CCCC4)cc(-c4ccc5c(c4)CN(C4CCC(=O)NC4=O)C5=O)nc23)C1 (stereo partly drawn)"
  measure-name: "Dmax"
  recorded-result: "< 20%"
- compound: "Nc1n[nH]c2c(CN3CCC(F)C3)cc(-c3ccc4c(c3)CN(C3CCC(=O)NC3=O)C4=O)nc12 (stereo not drawn)"
  measure-name: "Dmax"
  recorded-result: "20 to 40%"
- compound: "O=C1CCC(N2Cc3cc(-c4cc(CN5CCCC5)c5ncn(C6COC6)c5n4)ccc3C2=O)C(=O)N1 (stereo not drawn)"
  measure-name: "Dmax"
  recorded-result: "< 20%"

Form field: reported Dmax of CC(C)Nc1n[nH]c2c(CN3CCC(F)CC3)cc(-c3ccc4c(c3F)CN(C3CCC(=O)NC3=O)C4=O)nc12 (stereo not drawn) 20 to 40%

Form field: reported Dmax of O=C1CCC(N2Cc3cc(-c4cc(CN5CCCC5)c5nccc(C6CCC6)c5n4)ccc3C2=O)C(=O)N1 (stereo not drawn) < 20%
